molecular target: Disintegrin and metalloproteinase domain-containing protein 17 (Homo sapiens, UniProt P78536)
Sequence (P78536 whole entry, the tested form may be a part): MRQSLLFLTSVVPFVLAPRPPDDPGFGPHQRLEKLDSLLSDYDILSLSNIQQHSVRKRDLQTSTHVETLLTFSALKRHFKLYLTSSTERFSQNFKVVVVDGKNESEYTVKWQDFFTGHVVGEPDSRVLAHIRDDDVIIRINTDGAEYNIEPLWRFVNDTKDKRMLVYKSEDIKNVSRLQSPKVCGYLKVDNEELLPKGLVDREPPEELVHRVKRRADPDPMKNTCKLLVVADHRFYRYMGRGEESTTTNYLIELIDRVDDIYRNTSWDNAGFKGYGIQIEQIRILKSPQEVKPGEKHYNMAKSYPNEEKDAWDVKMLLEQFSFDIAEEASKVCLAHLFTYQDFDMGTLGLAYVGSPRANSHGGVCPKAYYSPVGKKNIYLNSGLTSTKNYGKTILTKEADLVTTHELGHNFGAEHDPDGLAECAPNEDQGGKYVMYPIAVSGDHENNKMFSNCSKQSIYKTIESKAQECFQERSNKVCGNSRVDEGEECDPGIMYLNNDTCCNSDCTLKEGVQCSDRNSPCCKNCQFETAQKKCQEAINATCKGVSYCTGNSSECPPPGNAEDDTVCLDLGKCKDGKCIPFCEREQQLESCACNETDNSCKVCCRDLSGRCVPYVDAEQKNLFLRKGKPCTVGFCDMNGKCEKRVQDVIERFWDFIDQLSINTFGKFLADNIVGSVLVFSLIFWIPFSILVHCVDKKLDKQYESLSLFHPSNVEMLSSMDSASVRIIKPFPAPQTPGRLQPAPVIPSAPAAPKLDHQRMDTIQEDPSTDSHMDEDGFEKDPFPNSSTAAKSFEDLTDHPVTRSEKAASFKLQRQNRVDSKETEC
pIC50: −log10 of the molar value.
VALUE_TYPE: pIC50

1. CNC(=O)[C@H](Cc1c[nH]c2ccccc12)NC(=O)[C@@H](CC(=O)NO)CC(C)C; 7.88

Measured values drawn from ChEMBL document CHEMBL1156023 for this set.
